- measurement.protocol: Caco-2 permeability (Papp A-B)
- Assay type: in vitro ADME
- reported.conditions: human, pH 7.4, read-out: caco-2 Papp A-B (pH 7.4)
- Description: The test methods employed to determine Wee-1 kinase inhibitory effect, Wee-1 potency in cells and kinetic solubility were the same as those taught in WO 2015/092431 (see page 350 to 358). The other test methods employed were as follows: • i. Determination of Caco-2 permeability at pH 6.5 (pH7.4 for Comparative Example 6) was carried out at Cyprotex Ltd using standard protocols and SOPs. • ii. […] Concentrations were measured at 4 h post dose on day 7. • v. […]

>  <smiles.repr>
Cc1cc(Nc2ncc3c(n2)N(C)CN(c2c(Cl)cccc2Cl)C3=O)ccc1N1CCNCC1

>  <Papp A→B>
6.6 ×10⁻⁶ cm/s

$$$$
